B1: CPEB3 Ribozyme (parent)
chain: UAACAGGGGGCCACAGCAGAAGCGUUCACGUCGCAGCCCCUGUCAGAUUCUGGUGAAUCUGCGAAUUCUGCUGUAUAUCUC

Variants of: B1
Protocol Notes: self-cleavage, relative activity (ratio to wild type); higher = more cleavage; in vitro, sequencing
Observation Type: self-cleavage
Enter a number only.

Q: Fill in the blank: the reported self-cleavage of A47G U76C is ____.
Ans: 1.04

Q: How about C12A U54C ?
Ans: 1.12

Q: Also check A56U C62U
Ans: 0.21

Q: Likewise for U25A C27U ?
Ans: 0.15

Q: Let us now turn to U1A U31C
Ans: 0.65

Q: Could you do the same for A15U C17A , please?
Ans: 0.6

Q: One more variant: U25A U58C
Ans: 0.29

Q: Another variant to look at: G36C U74C
Ans: 0.2

Q: Subsequent entry: G30U A57G
Ans: 0.13

Q: Then this variant: A28U A45U
Ans: 0.4

Q: Further, for C59A U74G ?
Ans: 0.74
